Measured growth, listed per entry.
Tested on: OVCAR-8 ovarian
Assay: NCI-60 one-dose screen, 48 h (100 = growth as untreated, 0 = no growth, -100 = all killed)
Details: 10 µM unless noted
Compounds without any hit were thinned out: in the full panel of roughly 83,000, 20% have a hit.
Assay readout: growth (%)

1) O=C(Nc1ccccc1)NS(=O)(=O)c1c[nH]c(=S)[nH]c1=O : 94.9
2) CC1CCCN(CCCCCOc2ccc3oc4ccc(Cl)cc4c(=O)c3c2)C1 (centres undefined) : 75
3) CCOC(=O)c1ccc(Nc2ncnc3ccc(NC(=O)c4ccccc4)cc23)cc1 : 86.7
4) COc1ccc(-c2cc(-c3nnc(SCC(=O)Nc4ccc(C(C)=O)cc4)o3)c3ccccc3n2)cc1 : -21
5) CC(C)NS(=O)(=O)c1cccc(-c2ccc3c4c(n(CCCN(C)C)c(=O)c3c2)-c2ccccc2C4=O)c1 : 76.4
6) CCC[S@](=O)c1ccc2nc(NC(=O)OC)[nH]c2c1 : 84.9
7) C=C1C(=O)O[C@H]2[C@H]1CCC(/C=N/c1ncc(Br)cc1N)=C\CC[C@@]1(C)O[C@@H]21 : 4.39
8) CCSc1ccc(C2C(Br)C(=O)N2c2cc(OC)c(OC)c(OC)c2)cc1 (centres undefined) : 17.4
9) C=C(C)[C@@H]1CC[C@]2(C(=O)N3CCN(C)CC3)CC[C@]3(C)[C@H](CC[C@@H]4[C@@]5(C)C/C(=C/c6ccco6)C(=O)C(C)(C)[C@@H]5CC[C@]43C)[C@@H]12 : 70.7

---

Tested on: UO-31 renal
Assay: NCI-60 one-dose screen, 48 h
Settings: 10 µM unless noted
The panel holds about 83,000 compounds, 20% with a hit somewhere; the sample as a whole holds those more often. Active and inactive are the calls of the source. The calls were made as follows: active = growth percent below 10; inactive = the rest.
Possible outcomes: active, inactive

1. COc1ccc2c(c1)/C(=C1\S/C(=N/c3nnc(C)s3)NC1=O)C(=O)N2Cc1ccc(Cl)cc1 : inactive
2. COc1ccc(-c2nnc(N3CCN(C(=O)CN4CCN(c5ccc(OC)cc5)CC4)CC3)nc2-c2ccc(OC)cc2)cc1 : active
3. COc1ccc(/C=C/C(=O)c2ccc(NC(=O)CSc3nnc(-c4ccc(OC)c(OC)c4)n3-c3ccccc3)cc2)cc1 : active
4. COc1ccc(/C=C/C(=O)Nc2ncnc3nc[nH]c23)cc1 : inactive
5. COc1cc(F)c(-c2nc3c(C)cccc3n2Cc2c(F)cccc2F)c(F)c1 : inactive

---

Test system: SNB-19 CNS
Assay: NCI-60 one-dose screen, 48 h (100 = growth as untreated, 0 = no growth, -100 = all killed)
Details: 10 µM unless noted
About 83,000 compounds went through this panel and 20% of them were active in at least one assay; those are over-represented in the sample as a whole. Active and inactive are the calls of the source. How the source made its calls: active means growth percent below 10; inactive means the rest.
Assay readout: growth

1) C/C(=C\c1cnc(C)s1)[C@@H]1C[C@@H]2O[C@@H]2CCC[C@H](C)[C@H](O)[C@@H](C)C(=O)C(C)(C)[C@@H](O)CC(=O)O1 : 44% (inactive)
2) Cc1cnc(SCc2ccc(Cl)cc2Cl)nc1Nc1ccc(Cl)c(Cl)c1 : 96.7% (inactive)
3) CC1CCN(CCCCCOc2ccc3oc4ccccc4c(=O)c3c2)CC1 : 87.5% (inactive)
4) CC(C)C[C@H](C(=O)O)N(C)C(=O)[C@@H]1CCCN1C(=O)[C@H](C)OC(=O)[C@H](CCC(N)=O)NC(=O)[C@@H]1CCC(=O)N1 : 102% (inactive)
5) O=C(Nc1nc(-c2ccccc2Cl)cs1)c1cc(-c2ccc(Br)cc2)nc2ccccc12 : 71% (inactive)

Where do the numbers come from? From PubChem BioAssay (NCI).
